Biological target: Proto-oncogene tyrosine-protein kinase Src (Homo sapiens)
Sequence (P12931 2-536 limits assumed): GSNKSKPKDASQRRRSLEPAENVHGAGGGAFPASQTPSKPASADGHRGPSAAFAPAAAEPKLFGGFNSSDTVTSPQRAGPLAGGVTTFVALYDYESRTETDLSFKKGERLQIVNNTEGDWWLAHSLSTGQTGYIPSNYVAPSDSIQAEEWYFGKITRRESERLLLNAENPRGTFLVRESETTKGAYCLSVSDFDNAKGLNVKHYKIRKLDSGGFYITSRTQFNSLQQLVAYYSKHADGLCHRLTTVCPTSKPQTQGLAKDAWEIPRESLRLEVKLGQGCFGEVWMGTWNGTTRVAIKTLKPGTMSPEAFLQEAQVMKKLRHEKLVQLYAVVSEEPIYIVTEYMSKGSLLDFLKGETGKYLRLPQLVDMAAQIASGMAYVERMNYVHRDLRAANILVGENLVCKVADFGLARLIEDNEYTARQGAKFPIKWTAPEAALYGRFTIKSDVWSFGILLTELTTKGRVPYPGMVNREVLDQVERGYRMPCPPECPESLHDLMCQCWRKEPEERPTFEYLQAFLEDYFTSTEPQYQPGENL
MEASURE_NAME: IC50

**Query** Requested read-out: IC50. Entry: COc1cc2ncc(C#N)c(NCc3cc(OC)c(OC)c(OC)c3)c2cc1OC
**Result** > 10 µM

Source: BindingDB's records for doi:10.1016/s0960-894x(00)00493-5
